- target-or-test-system: UniProt:P04183
Rule: Rate of phosphorylation below 0.3 gives 1. Equal to or above 0.3 gives 0.

compound	target-or-test-system	label-class
Cc1cn([C@H]2C[C@H](O)[C@@H](CO)O2)c(=O)n(CCCCC2CC2CC(O)CO)c1=O (stereo partly drawn)	UniProt:P04183	1
Cc1cn([C@H]2C[C@H](O)[C@@H](CO)O2)c(=O)n(CCCCCCC2CC2CC(O)CO)c1=O (stereo partly drawn)	UniProt:P04183	0
Cc1cn([C@H]2C[C@H](O)[C@@H](CO)O2)c(=O)n(CCC2CC2CC(O)CO)c1=O (stereo partly drawn)	UniProt:P04183	0
Cc1cn([C@H]2C[C@H](O)[C@@H](CO)O2)c(=O)n(CCCCC2CC2)c1=O	UniProt:P04183	1
Cc1cn([C@H]2C[C@H](O)[C@@H](CO)O2)c(=O)n(CCCCCCCC2CC2CC(O)CO)c1=O (stereo partly drawn)	UniProt:P04183	1
Cc1cn([C@H]2C[C@H](O)[C@@H](CO)O2)c(=O)n(CCCC2CC2CC(O)CO)c1=O (stereo partly drawn)	UniProt:P04183	0
Cc1cn([C@H]2C[C@H](O)[C@@H](CO)O2)c(=O)n(CCCCCC2CC2)c1=O	UniProt:P04183	0
Cc1cn([C@H]2C[C@H](O)[C@@H](CO)O2)c(=O)[nH]c1=O	UniProt:P04183	0
Cc1cn([C@H]2C[C@H](O)[C@@H](CO)O2)c(=O)n(CCCCCCCC2CC2)c1=O	UniProt:P04183	1
Cc1cn([C@H]2C[C@H](O)[C@@H](CO)O2)c(=O)n(CCCCCCC2CC2)c1=O	UniProt:P04183	1
Cc1cn([C@H]2C[C@H](O)[C@@H](CO)O2)c(=O)n(CCC2CC2)c1=O	UniProt:P04183	0
Cc1cn([C@H]2C[C@H](O)[C@@H](CO)O2)c(=O)n(CCCCCC2CC2CC(O)CO)c1=O (stereo partly drawn)	UniProt:P04183	0

====

Quick record of Rate of phosphorylation values for UniProt O00142.
Sequence (O00142 whole entry, looked up): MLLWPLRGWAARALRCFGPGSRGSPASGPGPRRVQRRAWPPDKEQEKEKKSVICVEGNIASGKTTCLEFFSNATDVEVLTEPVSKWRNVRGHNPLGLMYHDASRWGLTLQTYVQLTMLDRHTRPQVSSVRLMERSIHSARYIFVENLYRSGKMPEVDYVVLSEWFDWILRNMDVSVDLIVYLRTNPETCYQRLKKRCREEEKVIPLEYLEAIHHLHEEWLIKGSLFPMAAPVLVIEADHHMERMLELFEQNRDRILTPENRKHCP

compound	target-or-test-system	Rate of phosphorylation
Cc1cn([C@H]2C[C@H](O)[C@@H](CO)O2)c(=O)n(CCCCCC2CC2CC(O)CO)c1=O (stereo partly drawn)	UniProt O00142	0.002
Cc1cn([C@H]2C[C@H](O)[C@@H](CO)O2)c(=O)n(CCC2CC2CC(O)CO)c1=O (stereo partly drawn)	UniProt O00142	0.002
Cc1cn([C@H]2C[C@H](O)[C@@H](CO)O2)c(=O)[nH]c1=O	UniProt O00142	1
Cc1cn([C@H]2C[C@H](O)[C@@H](CO)O2)c(=O)n(CCCCC2CC2)c1=O	UniProt O00142	0.003
Cc1cn([C@H]2C[C@H](O)[C@@H](CO)O2)c(=O)n(CCCC2CC2)c1=O	UniProt O00142	0.002
Cc1cn([C@H]2C[C@H](O)[C@@H](CO)O2)c(=O)n(CCCCC2CC2CC(O)CO)c1=O (stereo partly drawn)	UniProt O00142	0.003
Cc1cn([C@H]2C[C@H](O)[C@@H](CO)O2)c(=O)n(CCCC2CC2CC(O)CO)c1=O (stereo partly drawn)	UniProt O00142	0.004
Cc1cn([C@H]2C[C@H](O)[C@@H](CO)O2)c(=O)n(CCCCCC2CC2)c1=O	UniProt O00142	0.001
Cc1cn([C@H]2C[C@H](O)[C@@H](CO)O2)c(=O)n(CCCCCCC2CC2)c1=O	UniProt O00142	< 0.001
Cc1cn([C@H]2C[C@H](O)[C@@H](CO)O2)c(=O)n(CCCCCCCC2CC2CC(O)CO)c1=O (stereo partly drawn)	UniProt O00142	< 0.001
Cc1cn([C@H]2C[C@H](O)[C@@H](CO)O2)c(=O)n(CCC2CC2)c1=O	UniProt O00142	0.002
Cc1cn([C@H]2C[C@H](O)[C@@H](CO)O2)c(=O)n(CCCCCCCC2CC2)c1=O	UniProt O00142	< 0.001
Cc1cn([C@H]2C[C@H](O)[C@@H](CO)O2)c(=O)n(CCCCCCC2CC2CC(O)CO)c1=O (stereo partly drawn)	UniProt O00142	0.002

====

- target-or-test-system: Thymidine kinase, cytosolic (Homo sapiens) (UniProt P04183)
- Sequence (whole entry): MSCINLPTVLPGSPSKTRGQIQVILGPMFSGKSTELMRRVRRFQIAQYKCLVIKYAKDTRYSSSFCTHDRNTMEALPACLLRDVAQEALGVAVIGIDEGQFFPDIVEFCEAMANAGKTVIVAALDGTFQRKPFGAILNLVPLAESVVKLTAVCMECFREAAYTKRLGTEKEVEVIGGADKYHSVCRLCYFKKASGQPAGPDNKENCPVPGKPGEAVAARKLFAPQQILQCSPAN
# maps each entry to its Rate of phosphorylation

molecule	Rate of phosphorylation
Cc1cn([C@H]2C[C@H](O)[C@@H](CO)O2)c(=O)n(CCCCC2CC2)c1=O	0.17
Cc1cn([C@H]2C[C@H](O)[C@@H](CO)O2)c(=O)n(CCCC2CC2)c1=O	0.27
Cc1cn([C@H]2C[C@H](O)[C@@H](CO)O2)c(=O)n(CCCCCCC2CC2)c1=O	0.31
Cc1cn([C@H]2C[C@H](O)[C@@H](CO)O2)c(=O)[nH]c1=O	1

====

- target-or-test-system: Thymidine kinase, cytosolic (Homo sapiens) (UniProt P04183)
Label scheme, based on Rate of phosphorylation: c1 (below 0.2), c2 (0.2 to below 0.4), c3 (0.4 or more)

compound	label-class
Cc1cn([C@H]2C[C@H](O)[C@@H](CO)O2)c(=O)n(CCCCC2CC2CC(O)CO)c1=O (some centres undefined)	c2
Cc1cn([C@H]2C[C@H](O)[C@@H](CO)O2)c(=O)n(CCCC2CC2CC(O)CO)c1=O (some centres undefined)	c3
Cc1cn([C@H]2C[C@H](O)[C@@H](CO)O2)c(=O)n(CCCCCCC2CC2CC(O)CO)c1=O (some centres undefined)	c2
Cc1cn([C@H]2C[C@H](O)[C@@H](CO)O2)c(=O)n(CCCCCCCC2CC2)c1=O	c1
Cc1cn([C@H]2C[C@H](O)[C@@H](CO)O2)c(=O)n(CCCCCC2CC2)c1=O	c3
Cc1cn([C@H]2C[C@H](O)[C@@H](CO)O2)c(=O)n(CCC2CC2)c1=O	c3
Cc1cn([C@H]2C[C@H](O)[C@@H](CO)O2)c(=O)n(CCCCCCCC2CC2CC(O)CO)c1=O (some centres undefined)	c1
Cc1cn([C@H]2C[C@H](O)[C@@H](CO)O2)c(=O)n(CCC2CC2CC(O)CO)c1=O (some centres undefined)	c3
